Listed compounds paired with reported IC50
# EXPERIMENTAL_SYSTEM: IKKε (Homo sapiens, UniProt Q14164)
# Construct: His-tag; made in house; host or cells: Sf9 insect cells
# Sequence (Q14164 1-716): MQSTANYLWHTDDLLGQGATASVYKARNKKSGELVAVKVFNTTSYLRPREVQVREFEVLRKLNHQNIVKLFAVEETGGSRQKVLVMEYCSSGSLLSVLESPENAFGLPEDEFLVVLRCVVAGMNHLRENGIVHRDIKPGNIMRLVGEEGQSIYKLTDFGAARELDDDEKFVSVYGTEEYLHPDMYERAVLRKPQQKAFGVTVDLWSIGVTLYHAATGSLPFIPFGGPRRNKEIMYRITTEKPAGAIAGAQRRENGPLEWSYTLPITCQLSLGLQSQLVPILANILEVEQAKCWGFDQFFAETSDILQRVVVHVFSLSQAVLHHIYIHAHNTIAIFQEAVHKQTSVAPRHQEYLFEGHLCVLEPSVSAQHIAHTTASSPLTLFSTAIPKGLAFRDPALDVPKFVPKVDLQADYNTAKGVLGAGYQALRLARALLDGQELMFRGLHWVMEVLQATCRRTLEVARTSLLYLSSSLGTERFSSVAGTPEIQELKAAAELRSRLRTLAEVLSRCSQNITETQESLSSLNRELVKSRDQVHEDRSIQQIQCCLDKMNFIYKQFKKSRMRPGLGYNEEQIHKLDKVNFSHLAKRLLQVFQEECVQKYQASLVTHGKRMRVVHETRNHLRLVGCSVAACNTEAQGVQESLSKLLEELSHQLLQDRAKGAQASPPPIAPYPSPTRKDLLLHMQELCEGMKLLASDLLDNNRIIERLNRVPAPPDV
# ASSAY_METHOD_TEXT: In-vitro IKKε kinase assay ([γ33]ATP filter-plate)
# Type: biochemical
# RECORDED_CONDITIONS: text bins; read-out: IC50 for inhibition of the kinase activity of IKKε
QUANTITY_KIND: IC50

compound="COC(=O)C(C)(C)COc1ccc(-c2ccnc(Nc3ccc(N4CCOCC4)cc3)n2)cc1C#N [Example 84]" experimental_system="IKKε (Homo sapiens, UniProt Q14164)" result="50 to 500 nM"
compound="COc1cc(Nc2nccc(-c3ccc(OC4CCOCC4)c(C#N)c3)n2)ccc1C(N)=O [compound 311]" experimental_system="IKKε (Homo sapiens, UniProt Q14164)" result="< 5 nM"
compound="CN(C)CCCNS(=O)(=O)c1ccc(Nc2nccc(-c3ccc(OC4CCOCC4)c(C#N)c3)n2)cc1 [Example 3]" experimental_system="IKKε (Homo sapiens, UniProt Q14164)" result="< 5 nM"
compound="N#Cc1cc(-c2ccnc(Nc3ccc(CS(=O)(=O)N4CCOCC4)cc3)n2)ccc1OC1CCOCC1 [compound 404]" experimental_system="IKKε (Homo sapiens, UniProt Q14164)" result="< 5 nM"
compound="COc1cc(Nc2nccc(-c3ccc(OC4CCOCC4)c(C#N)c3)n2)ccc1S(=O)(=O)N(C)CCCN(C)C [compound 397]" experimental_system="IKKε (Homo sapiens, UniProt Q14164)" result="< 5 nM"
compound="COc1cc(NC(=O)NC2CCCC2)cc(Nc2nccc(-c3ccc(OC4CCN(C(C)=O)CC4)c(C#N)c3)n2)c1 [compound 333]" experimental_system="IKKε (Homo sapiens, UniProt Q14164)" result="5 to 50 nM"
compound="COc1ccc(-c2ccnc(Nc3cccc(NC(=O)N4CC[C@@H](O)C4)c3)n2)cc1C#N [compound 372]" experimental_system="IKKε (Homo sapiens, UniProt Q14164)" result="5 to 50 nM"
compound="COc1cc(Nc2nccc(-c3ccc(OC4CCN(C(=O)[C@H](C)O)CC4)c(C#N)c3)n2)ccc1N1CCOCC1 [Example 208]" experimental_system="IKKε (Homo sapiens, UniProt Q14164)" result="< 5 nM"
compound="N#Cc1cc(-c2ccnc(Nc3cccc(CS(=O)(=O)NCCO)c3)n2)ccc1OCC1CC1 [compound 611]" experimental_system="IKKε (Homo sapiens, UniProt Q14164)" result="< 5 nM"
compound="COc1cc(Nc2nccc(-c3ccc(OC4CCOCC4)c(C#N)c3)n2)ccc1CN1CCN(CCO)CC1 [compound 477]" experimental_system="IKKε (Homo sapiens, UniProt Q14164)" result="< 5 nM"
